Log (CLint) (Actual) for assorted molecules
target: UGT1A9 (Homo sapiens, UniProt O60656); test: Kinetic profiling of glucuronidation by expressed human UGT1A9; conditions: log of experimental CLint (μl/mg/min)
Sequence (O60656 26-530): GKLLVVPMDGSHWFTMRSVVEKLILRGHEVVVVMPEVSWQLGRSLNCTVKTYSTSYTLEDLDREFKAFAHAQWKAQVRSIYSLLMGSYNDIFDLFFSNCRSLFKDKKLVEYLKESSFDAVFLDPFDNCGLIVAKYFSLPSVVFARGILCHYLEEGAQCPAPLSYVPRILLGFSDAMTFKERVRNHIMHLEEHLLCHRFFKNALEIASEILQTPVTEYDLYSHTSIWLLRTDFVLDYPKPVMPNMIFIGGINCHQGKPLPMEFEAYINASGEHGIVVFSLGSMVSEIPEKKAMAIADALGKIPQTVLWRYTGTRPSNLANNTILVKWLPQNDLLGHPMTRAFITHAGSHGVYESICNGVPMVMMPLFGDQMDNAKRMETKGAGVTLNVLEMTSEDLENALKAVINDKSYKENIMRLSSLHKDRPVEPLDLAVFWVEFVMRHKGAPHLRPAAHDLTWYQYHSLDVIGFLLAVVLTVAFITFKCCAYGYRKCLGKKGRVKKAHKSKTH

molecule | Log (CLint) (Actual)
O=c1cc(-c2ccc(O)c(O)c2)oc2cc(O)ccc12 [41.a, 7,3′,4′-Trihydroxyflavone] | 3.08
COc1cc(O)c2c(=O)c(O)c(-c3ccc(O)c(O)c3)oc2c1 [compound 93, Rhamnetin] | 4.65
CC(C)c1ccc(O)cc1 [compound 117, 4-Isopropylphenol] | 1.78
COc1ccc(-c2oc3ccccc3c(=O)c2O)cc1 [compound 74, 3-Hydroxy-4′-methoxyflavone] | 4.51
O=c1cc(-c2ccc(O)c(O)c2)oc2ccc(O)cc12 [compound 35, 6,3′,4′-Trihydroxyflavone] | 3.54
O=C(/C=C/c1ccccc1O)c1ccccc1 [compound 3, 2-Hydroxychalcone] | 3.38
O=c1cc(-c2cccc(O)c2)oc2ccccc12 [compound 31, 3′-Hydroxyflavone] | 2.66
O=c1cc(-c2ccc(O)cc2)oc2ccccc12 [compound 32, 4′-Hydroxyflavone] | 1.83
